Just for reference, patent US20080161232A1 is where these values come from.

tgt: human C5aR(CD88) (Homo sapiens, UniProt P21730)
Construct: expressed in transfected cells; host or cells: rat basophilic leukemia cells (RBL)
Sequence (P21730 whole entry): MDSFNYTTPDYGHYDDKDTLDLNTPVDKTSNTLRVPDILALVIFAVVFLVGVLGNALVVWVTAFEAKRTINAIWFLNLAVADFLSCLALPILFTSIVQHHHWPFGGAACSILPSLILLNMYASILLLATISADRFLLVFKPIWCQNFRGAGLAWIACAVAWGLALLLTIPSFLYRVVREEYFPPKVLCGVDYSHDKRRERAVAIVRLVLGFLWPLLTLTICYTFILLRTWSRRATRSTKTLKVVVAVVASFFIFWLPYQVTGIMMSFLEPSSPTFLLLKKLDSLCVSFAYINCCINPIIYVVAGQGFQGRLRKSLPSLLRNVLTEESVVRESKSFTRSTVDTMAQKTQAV
assayProcedure: Determination of EC50-values in an enzyme release assay (agonistic activity)
Assay type: cell-based
statedConditions: cellular assay, up to a concentration of at least 1430 nM
Positions of bridges follow the written chain, without caps; N, C: chain ends. Non-standard residues stand in square brackets, D forms with d. Residues, ends and D or L forms follow the SMILES beside them. Bta = N[C@@H](Cc1csc2ccccc12)C(=O)O; dCha = N[C@H](CC1CCCCC1)C(=O)O; AllylGly = C=CC[C@H](N)C(=O)O; Nle = CCCC[C@H](N)C(=O)O; Orn = NCCC[C@H](N)C(=O)O

molecule	agonistic activity (in words)
C=CC[C@@H]1NC(=O)[C@H](Cc2c[nH]c3ccccc23)NC(=O)[C@@H](CC2CCCCC2)NC(=O)[C@@H]2CCCN2C(=O)[C@@H](NC(=O)[C@H](Cc2ccccc2)NC(C)=O)CCCNC1=O [Compound 33, Ac-Phe-[Orn-Pro-cha-Trp-Eaf]] (Ac-F[Orn]P[dCha]W[AllylGly]; lactam 2-C)	pure antagonists
CCCC[C@@H]1NC(=O)[C@H](Cc2c[nH]c3ccccc23)NC(=O)[C@@H](CC2CCCCC2)NC(=O)[C@H](CO)NC(=O)[C@@H](NC(=O)[C@@H](N)Cc2ccccc2)CCCNC1=O [Compound 44, H-Phe-[Orn-Ser-cha-Trp-Nle]] (H-F[Orn]S[dCha]W[Nle]; lactam 2-C)	pure antagonists
CC(=O)N[C@@H](Cc1ccccc1)C(=O)N[C@@H](CCCN)C(=O)N1CCC[C@H]1C(=O)N[C@H](CC1CCCCC1)C(=O)N[C@@H](Cc1csc2ccccc12)C(=O)N[C@@H](Cc1ccccc1)C(N)=O [Compound 62, Ac-Phe-Orn-Pro-cha-Bta-Phe-NH2] (Ac-F[Orn]P[dCha][Bta]F-NH2)	pure antagonists
